Test: in vivo
Set-up: species or system Swiss albino mice
Conditions: Swiss albino, mouse, iv, 10 pmol peptide, total radioactivity, %ID/g tissue, Lung
Readout kind: tissue uptake at 48 h (%ID/g)
Numbers only, in %ID/g.

Query string: Find the recorded tissue uptake at 48 h belonging to CSCC[C@H](NC(=O)[C@H](Cc1c[nH]c2ccccc12)NC(=O)CNC(=O)[C@H](Cc1ccc(O)cc1)NC(=O)[C@H](C)NC(=O)[C@@H](CCC(=O)O)NC(=O)[C@@H](CCC(=O)O)NC(=O)[C@@H](CCC(=O)O)NC(=O)[C@@H](CCC(=O)O)NC(=O)[C@@H](CCC(=O)O)NC(=O)[C@@H](CCC(=O)O)NC(=O)CN1CCN(CC(=O)O)CCN(CC(=O)O)CCN(CC(=O)O)CC1)C(=O)N[C@@H](CC(=O)O)C(=O)N[C@@H](Cc1ccccc1)C(N)=O [^111In-CP04, metal not drawn] and report it.
Result string: 0.02
